pKi tested on Ectonucleoside triphosphate diphosphohydrolase 2 (Homo sapiens, UniProt Q9Y5L3): recorded values
Sequence (Q9Y5L3 whole entry): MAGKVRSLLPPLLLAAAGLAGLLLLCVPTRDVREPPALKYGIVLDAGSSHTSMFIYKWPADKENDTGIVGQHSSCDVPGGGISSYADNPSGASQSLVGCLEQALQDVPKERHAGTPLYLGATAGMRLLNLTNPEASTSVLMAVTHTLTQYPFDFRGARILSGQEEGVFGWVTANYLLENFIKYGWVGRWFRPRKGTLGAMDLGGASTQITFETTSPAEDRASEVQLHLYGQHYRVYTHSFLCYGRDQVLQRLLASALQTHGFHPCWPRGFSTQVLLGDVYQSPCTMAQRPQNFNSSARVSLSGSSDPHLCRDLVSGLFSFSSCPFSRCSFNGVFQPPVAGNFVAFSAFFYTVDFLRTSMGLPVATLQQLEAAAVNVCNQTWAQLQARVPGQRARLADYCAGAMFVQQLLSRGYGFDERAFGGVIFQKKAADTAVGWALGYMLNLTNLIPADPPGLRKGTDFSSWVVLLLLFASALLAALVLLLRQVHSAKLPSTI
pKi: −log10 of the molar value.

Look up pKi with Ectonucleoside triphosphate diphosphohydrolase 2 (Homo sapiens, UniProt Q9Y5L3) for this compound: Nc1c(S(=O)(=O)O)cc(Nc2ccc(F)cc2C(=O)O)c2c1C(=O)c1ccccc1C2=O
< 3.70

Look up pKi with Ectonucleoside triphosphate diphosphohydrolase 2 (Homo sapiens, UniProt Q9Y5L3) for this compound: Nc1c(S(=O)(=O)O)cc(Nc2ccc3cc4ccccc4cc3c2)c2c1C(=O)c1ccccc1C2=O
< 3.70

###

Molecular target: P2Y purinoceptor 6 (Rattus norvegicus)
Sequence (Q63371 whole entry): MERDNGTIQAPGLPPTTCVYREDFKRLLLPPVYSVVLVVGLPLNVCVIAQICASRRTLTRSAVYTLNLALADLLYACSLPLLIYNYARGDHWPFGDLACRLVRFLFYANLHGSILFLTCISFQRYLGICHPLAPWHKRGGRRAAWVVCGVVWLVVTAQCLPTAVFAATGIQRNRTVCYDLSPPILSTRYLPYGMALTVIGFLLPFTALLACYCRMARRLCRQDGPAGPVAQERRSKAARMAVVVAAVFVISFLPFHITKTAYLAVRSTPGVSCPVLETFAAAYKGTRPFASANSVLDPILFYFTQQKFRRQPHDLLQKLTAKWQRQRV
Test: Antagonist activity at rat P2Y6 receptor expressed in astrocytoma cells assessed as inhibition of intracellular calcium mobilization
Can you tell me IC50 for the items I'm about to list?
Give a bare numeral; the unit µM is implied.

// returns reported IC50 for input Nc1c(S(=O)(=O)O)cc(Nc2ccc(F)cc2C(=O)O)c2c1C(=O)c1ccccc1C2=O
10

// returns reported IC50 for input Nc1c(S(=O)(=O)O)cc(Nc2cccc3ccccc23)c2c1C(=O)c1ccccc1C2=O
30

// returns reported IC50 for input Nc1c(S(=O)(=O)O)cc(Nc2ccc(O)cc2)c2c1C(=O)c1ccccc1C2=O
5.3

###

measured_metric: Ki
Show the value, then the unit it is measured in.

Look up Ki with Ectonucleoside triphosphate diphosphohydrolase 1 (Rattus norvegicus) for this compound: Nc1c(S(=O)(=O)O)cc(Nc2ccccc2)c2c1C(=O)c1ccccc1C2=O
Sequence (P97687 whole entry): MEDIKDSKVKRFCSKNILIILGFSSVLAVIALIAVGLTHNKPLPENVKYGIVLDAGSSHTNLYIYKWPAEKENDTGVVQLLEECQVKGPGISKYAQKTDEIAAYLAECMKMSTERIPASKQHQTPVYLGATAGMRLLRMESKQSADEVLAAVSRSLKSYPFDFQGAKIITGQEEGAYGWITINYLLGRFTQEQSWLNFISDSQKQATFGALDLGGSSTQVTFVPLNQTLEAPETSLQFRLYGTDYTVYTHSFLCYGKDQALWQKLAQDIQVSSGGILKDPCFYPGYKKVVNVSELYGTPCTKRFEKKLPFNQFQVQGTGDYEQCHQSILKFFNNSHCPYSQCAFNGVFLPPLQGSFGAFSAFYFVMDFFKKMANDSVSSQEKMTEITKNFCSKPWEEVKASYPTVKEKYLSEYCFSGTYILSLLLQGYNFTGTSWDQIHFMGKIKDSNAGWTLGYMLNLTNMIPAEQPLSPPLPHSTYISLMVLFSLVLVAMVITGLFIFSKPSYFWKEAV
49.1 µM

###

measured_metric: Ki

Look up Ki with Ectonucleoside triphosphate diphosphohydrolase 3 (Homo sapiens, UniProt O75355) for this compound: Nc1c(S(=O)(=O)O)cc(Nc2ccc(F)cc2C(=O)O)c2c1C(=O)c1ccccc1C2=O
Sequence (O75355 whole entry): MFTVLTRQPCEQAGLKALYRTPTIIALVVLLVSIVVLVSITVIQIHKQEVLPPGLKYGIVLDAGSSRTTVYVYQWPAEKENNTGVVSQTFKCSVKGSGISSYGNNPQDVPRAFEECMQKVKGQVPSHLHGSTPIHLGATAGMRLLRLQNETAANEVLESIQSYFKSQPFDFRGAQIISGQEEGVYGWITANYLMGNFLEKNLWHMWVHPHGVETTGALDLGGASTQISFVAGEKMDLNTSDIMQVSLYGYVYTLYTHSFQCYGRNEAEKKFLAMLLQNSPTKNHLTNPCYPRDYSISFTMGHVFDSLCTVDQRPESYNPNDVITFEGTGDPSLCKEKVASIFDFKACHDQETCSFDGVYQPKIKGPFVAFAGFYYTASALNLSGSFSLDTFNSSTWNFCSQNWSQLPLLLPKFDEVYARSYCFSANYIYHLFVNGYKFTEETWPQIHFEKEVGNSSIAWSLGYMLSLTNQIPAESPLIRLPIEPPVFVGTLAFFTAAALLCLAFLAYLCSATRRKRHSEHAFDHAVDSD
> 60 µM

###

Target: 5'-nucleotidase (Rattus norvegicus)
Sequence (whole entry): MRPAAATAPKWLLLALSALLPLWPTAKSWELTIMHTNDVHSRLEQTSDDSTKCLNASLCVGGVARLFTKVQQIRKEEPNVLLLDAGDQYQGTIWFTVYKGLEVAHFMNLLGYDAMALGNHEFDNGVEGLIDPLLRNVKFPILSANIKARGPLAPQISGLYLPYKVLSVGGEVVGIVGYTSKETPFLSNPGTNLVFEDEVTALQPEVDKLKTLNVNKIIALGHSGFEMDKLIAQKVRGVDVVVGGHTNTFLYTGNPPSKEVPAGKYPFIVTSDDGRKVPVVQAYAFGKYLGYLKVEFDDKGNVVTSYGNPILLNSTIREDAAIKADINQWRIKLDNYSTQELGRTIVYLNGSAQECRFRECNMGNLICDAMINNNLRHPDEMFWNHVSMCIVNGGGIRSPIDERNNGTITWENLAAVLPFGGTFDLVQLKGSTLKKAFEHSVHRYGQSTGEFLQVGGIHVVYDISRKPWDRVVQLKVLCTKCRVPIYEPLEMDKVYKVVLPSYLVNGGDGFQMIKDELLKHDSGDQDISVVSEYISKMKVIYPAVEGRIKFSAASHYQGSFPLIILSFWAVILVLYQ
Assay: Inhibition of rat ecto-5'-nucleotidase expressed in Sf9 cells at 1 mM by capillary electrophoresis method
inhibition of 40% or higher: Fulfilled. Under 40%: Not fulfilled.

Quick check, inhibition >= 40%? COc1ccc(CCNc2cc(S(=O)(=O)O)c(N)c3c2C(=O)c2ccccc2C3=O)cc1OC
Fulfilled

Quick check, inhibition >= 40%? Nc1c(S(=O)(=O)O)cc(Nc2ccccc2S(=O)(=O)O)c2c1C(=O)c1ccccc1C2=O
Not fulfilled

Quick check, inhibition >= 40%? Nc1cc(Nc2cc(S(=O)(=O)O)c(N)c3c2C(=O)c2ccccc2C3=O)cc(C(=O)O)c1
Fulfilled

Quick check, inhibition >= 40%? CCOP(=O)(Cc1ccc(Nc2cc(S(=O)(=O)O)c(N)c3c2C(=O)c2ccccc2C3=O)cc1)OCC
Not fulfilled

Quick check, inhibition >= 40%? Nc1c(S(=O)(=O)O)cc(Nc2ccc(C(=O)O)cc2)c2c1C(=O)c1ccccc1C2=O
Not fulfilled

Quick check, inhibition >= 40%? Nc1c(S(=O)(=O)O)cc(NCc2ccccc2)c2c1C(=O)c1ccccc1C2=O
Fulfilled

Quick check, inhibition >= 40%? Nc1ccccc1Nc1cc(S(=O)(=O)O)c(N)c2c1C(=O)c1ccccc1C2=O
Fulfilled

Quick check, inhibition >= 40%? Nc1c(S(=O)(=O)O)cc(NC2CCCC2)c2c1C(=O)c1ccccc1C2=O
Fulfilled

Quick check, inhibition >= 40%? Nc1c(S(=O)(=O)O)cc(Nc2ccc(Br)cc2C(=O)O)c2c1C(=O)c1ccccc1C2=O
Fulfilled

Quick check, inhibition >= 40%? Nc1c(S(=O)(=O)O)cc(Nc2ccc(Cl)cc2C(=O)O)c2c1C(=O)c1ccccc1C2=O
Fulfilled

Quick check, inhibition >= 40%? Nc1c(S(=O)(=O)O)cc(Nc2ccc(CC(=O)O)cc2)c2c1C(=O)c1ccccc1C2=O
Not fulfilled

Quick check, inhibition >= 40%? Cc1cc(Nc2ccccc2)c2c(c1N)C(=O)c1ccccc1C2=O
Not fulfilled

Quick check, inhibition >= 40%? CC(C)Nc1cc(S(=O)(=O)O)c(N)c2c1C(=O)c1ccccc1C2=O
Not fulfilled

Quick check, inhibition >= 40%? Nc1c(S(=O)(=O)O)cc(Nc2cccc3ccc(S(=O)(=O)O)cc23)c2c1C(=O)c1ccccc1C2=O
Not fulfilled

Quick check, inhibition >= 40%? Nc1c(S(=O)(=O)O)cc(NCCc2ccccc2)c2c1C(=O)c1ccccc1C2=O
Fulfilled

Quick check, inhibition >= 40%? Cc1ccc(Nc2cc(S(=O)(=O)O)c(N)c3c2C(=O)c2ccccc2C3=O)c(C)c1
Fulfilled

Quick check, inhibition >= 40%? Cc1ccccc1Nc1cc(S(=O)(=O)O)c(N)c2c1C(=O)c1ccccc1C2=O
Not fulfilled

Quick check, inhibition >= 40%? CCOc1ccc(Nc2cc(S(=O)(=O)O)c(N)c3c2C(=O)c2ccccc2C3=O)cc1
Not fulfilled

Quick check, inhibition >= 40%? Nc1c(S(=O)(=O)O)cc(Nc2cc3ccccc3c3ccccc23)c2c1C(=O)c1ccccc1C2=O
Fulfilled

Quick check, inhibition >= 40%? Nc1c(S(=O)(=O)O)cc(Nc2cc(F)ccc2C(=O)O)c2c1C(=O)c1ccccc1C2=O
Fulfilled

###

Molecular target: Ectonucleoside triphosphate diphosphohydrolase 2 (Rattus norvegicus)
Sequence (O35795 whole entry): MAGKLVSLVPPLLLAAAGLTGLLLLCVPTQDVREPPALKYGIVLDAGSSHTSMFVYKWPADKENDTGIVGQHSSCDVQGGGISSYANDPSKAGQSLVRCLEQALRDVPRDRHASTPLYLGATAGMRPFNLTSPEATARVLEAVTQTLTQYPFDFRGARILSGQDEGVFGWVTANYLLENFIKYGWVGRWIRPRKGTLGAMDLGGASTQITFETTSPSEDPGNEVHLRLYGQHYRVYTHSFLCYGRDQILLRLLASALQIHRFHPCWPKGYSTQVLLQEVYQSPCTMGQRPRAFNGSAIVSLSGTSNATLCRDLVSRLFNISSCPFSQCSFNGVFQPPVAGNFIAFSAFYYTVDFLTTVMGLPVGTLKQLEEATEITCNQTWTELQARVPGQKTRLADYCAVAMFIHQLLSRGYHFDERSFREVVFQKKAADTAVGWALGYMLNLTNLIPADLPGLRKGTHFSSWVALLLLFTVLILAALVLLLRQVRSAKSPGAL
measured_metric: Ki (µM)
Give a bare numeral; the unit µM is implied.

// returns reported Ki for input Nc1c(S(=O)(=O)O)cc(Nc2ccccc2)c2c1C(=O)c1ccccc1C2=O
35.8

###

Can you tell me Ki for the items I'm about to list?
Molecular target: 5'-nucleotidase (Rattus norvegicus, UniProt P21588)
Sequence (P21588 whole entry): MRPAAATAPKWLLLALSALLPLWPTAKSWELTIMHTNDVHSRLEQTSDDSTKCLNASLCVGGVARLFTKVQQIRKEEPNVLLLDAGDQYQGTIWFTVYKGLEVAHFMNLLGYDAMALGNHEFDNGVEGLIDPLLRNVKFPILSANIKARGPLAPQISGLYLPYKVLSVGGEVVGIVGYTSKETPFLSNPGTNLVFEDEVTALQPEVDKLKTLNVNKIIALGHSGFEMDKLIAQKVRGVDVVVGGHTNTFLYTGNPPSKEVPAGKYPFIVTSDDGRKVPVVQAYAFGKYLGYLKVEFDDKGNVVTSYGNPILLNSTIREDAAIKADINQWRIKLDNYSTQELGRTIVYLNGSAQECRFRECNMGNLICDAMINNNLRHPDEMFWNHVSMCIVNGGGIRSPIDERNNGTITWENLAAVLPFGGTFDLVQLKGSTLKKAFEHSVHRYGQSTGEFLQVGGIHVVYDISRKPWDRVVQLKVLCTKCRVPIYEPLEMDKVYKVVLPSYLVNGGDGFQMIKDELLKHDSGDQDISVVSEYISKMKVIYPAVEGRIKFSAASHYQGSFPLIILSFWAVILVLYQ
Give a bare numeral; the unit µM is implied.

// returns reported Ki for input Nc1ncnc2c1ncn2[C@H]1O[C@@H](COP(=O)(O)CP(=O)(O)O)[C@H](O)[C@@H]1O
0.00087

// returns reported Ki for input Nc1c(S(=O)(=O)O)cc(Nc2ccccc2O)c2c1C(=O)c1ccccc1C2=O
1.84

// returns reported Ki for input Nc1c(S(=O)(=O)O)cc(Nc2ccc(Nc3nc(Cl)nc(Nc4cccc(S(=O)(=O)O)c4)n3)c(S(=O)(=O)O)c2)c2c1C(=O)c1ccccc1C2=O
3.07

// returns reported Ki for input Nc1c(S(=O)(=O)O)cc(Nc2ccc(O)cc2)c2c1C(=O)c1ccccc1C2=O
0.62

// returns reported Ki for input Nc1c(S(=O)(=O)O)cc(Nc2ccc3cc4ccccc4cc3c2)c2c1C(=O)c1ccccc1C2=O
0.15

// returns reported Ki for input Nc1c(S(=O)(=O)O)cc(Nc2cccc3cc(S(=O)(=O)O)ccc23)c2c1C(=O)c1ccccc1C2=O
15.3

// returns reported Ki for input Cc1cccc(Nc2cc(S(=O)(=O)O)c(N)c3c2C(=O)c2ccccc2C3=O)c1
12.3

// returns reported Ki for input Cc1cc(C)c(Nc2cc(S(=O)(=O)O)c(N)c3c2C(=O)c2ccccc2C3=O)c(C)c1N
36

// returns reported Ki for input Nc1c(S(=O)(=O)O)cc(Nc2cccc3ccccc23)c2c1C(=O)c1ccccc1C2=O
0.53

// returns reported Ki for input Nc1ccccc1Nc1cc(S(=O)(=O)O)c(N)c2c1C(=O)c1ccccc1C2=O
47

// returns reported Ki for input Cc1ccc(Nc2cc(S(=O)(=O)O)c(N)c3c2C(=O)c2ccccc2C3=O)cc1
360

// returns reported Ki for input Nc1c(S(=O)(=O)O)cc(Nc2ccc(Br)cc2)c2c1C(=O)c1ccccc1C2=O
11.3

// returns reported Ki for input Nc1c(S(=O)(=O)O)cc(Nc2ccc3ccccc3c2)c2c1C(=O)c1ccccc1C2=O
1.47

// returns reported Ki for input Nc1c(S(=O)(=O)O)cc(Nc2ccccc2)c2c1C(=O)c1ccccc1C2=O
15.2

// returns reported Ki for input Cc1ccc2ccccc2c1Nc1cc(S(=O)(=O)O)c(N)c2c1C(=O)c1ccccc1C2=O
2.74
